studyTarget: heme-regulated inhibitor (HRI) (Homo sapiens)
Sequence (Q9BQI3 whole entry): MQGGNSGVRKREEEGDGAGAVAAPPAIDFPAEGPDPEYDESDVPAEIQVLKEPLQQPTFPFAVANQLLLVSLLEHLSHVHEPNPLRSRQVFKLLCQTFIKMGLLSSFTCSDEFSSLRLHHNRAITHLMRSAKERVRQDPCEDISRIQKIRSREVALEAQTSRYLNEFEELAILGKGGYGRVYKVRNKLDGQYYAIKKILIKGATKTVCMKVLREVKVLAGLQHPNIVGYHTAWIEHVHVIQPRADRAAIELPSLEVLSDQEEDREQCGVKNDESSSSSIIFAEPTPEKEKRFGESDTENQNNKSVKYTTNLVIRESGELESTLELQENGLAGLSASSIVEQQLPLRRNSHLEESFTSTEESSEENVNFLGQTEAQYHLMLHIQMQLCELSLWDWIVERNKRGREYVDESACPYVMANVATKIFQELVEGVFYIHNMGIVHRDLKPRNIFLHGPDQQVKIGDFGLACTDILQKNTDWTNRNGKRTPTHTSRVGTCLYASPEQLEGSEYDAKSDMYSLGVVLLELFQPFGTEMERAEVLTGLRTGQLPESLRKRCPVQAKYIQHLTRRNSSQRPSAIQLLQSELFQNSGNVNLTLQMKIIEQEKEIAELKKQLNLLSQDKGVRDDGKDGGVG
measure: pIC50
Field pIC50 (float): negative decimal logarithm of the concentration in molar.

Item: O=c1c(O)c(-c2ccc(O)c(O)c2)oc2cc(O)cc(O)c12 Test system: heme-regulated inhibitor (HRI) (Homo sapiens) Read-out: pIC50 Value: ? 5.82
